Target: LHRHR, also known as GnRHR (Homo sapiens)
Sequence (P30968 whole entry): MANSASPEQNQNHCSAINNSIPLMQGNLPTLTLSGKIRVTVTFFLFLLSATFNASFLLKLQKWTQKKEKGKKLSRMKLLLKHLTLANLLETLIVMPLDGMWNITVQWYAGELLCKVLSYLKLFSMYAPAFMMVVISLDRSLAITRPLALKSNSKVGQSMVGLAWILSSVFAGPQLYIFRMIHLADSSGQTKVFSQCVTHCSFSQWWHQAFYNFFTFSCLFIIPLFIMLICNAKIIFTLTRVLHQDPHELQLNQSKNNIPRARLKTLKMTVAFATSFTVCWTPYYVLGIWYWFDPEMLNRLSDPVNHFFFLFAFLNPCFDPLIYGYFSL
Assay: Radioligand binding assay ([125I]-[D-Trp6]-LHRH displacement)
Conditions: purified membrane with LHRHR, 0.18 nM [125I]-[D-Trp6]-LHRH, 1 h at 25° C.; read-out: Binding Assay
Procedure: An amount of 2 μg of a purified membrane with LHRHR, also known as GnRHR, was incubated with 0.18 nM [125I]-[D-Trp6]-LHRH and compounds of interest in the incubation buffer (50 mM HEPES, pH 7.4, 5 mM MgCl2, 1 mM CaCl2, and 0.2% BSA). […] The radioactivity bound to the filter was measured by a Topcount® system (PerkinElmer Inc., Waltham, MA, USA). […]
pIC50: −log10 of the molar value. Where a SMILES comes first, the peptide text is derived from it. [ ]: non-standard residue; d: D form. d(hArg(Et2)) = CCN=C(NCC)NCCCC[C@@H](N)C(=O)O; hArg(Et2) = CCN=C(NCC)NCCCC[C@H](N)C(=O)O; dPhe(4-Cl) = N[C@H](Cc1ccc(Cl)cc1)C(=O)O; d2Nal = N[C@H](Cc1ccc2ccccc2c1)C(=O)O; dCit = NC(=O)NCCC[C@@H](N)C(=O)O; d3Pal = N[C@H](Cc1cccnc1)C(=O)O
pIC50 values, listed per item

# MOLECULE, pIC50
records = [
    ("CC(=O)N[C@H](Cc1ccc2ccccc2c1)C(=O)N[C@H](Cc1ccc(Cl)cc1)C(=O)N[C@H](Cc1cccnc1)C(=O)N[C@@H](CO)C(=O)N[C@@H](Cc1ccc(O)cc1)C(=O)N[C@H](CCCNC(N)=O)C(=O)N[C@H](CCCCN)C(=O)N[C@@H](CCCNC(=N)N)C(=O)N1CCC[C@H]1C(=O)N[C@H](C)C(N)=O [Compound 3] (Ac-[d2Nal][dPhe(4-Cl)][d3Pal]SY[dCit][dK]RP[dA]-NH2)", "7.00 to 8.00"),
    ("CC(=O)N[C@H](Cc1ccc2ccccc2c1)C(=O)N[C@H](Cc1ccc(Cl)cc1)C(=O)N[C@H](Cc1cccnc1)C(=O)N[C@@H](CO)C(=O)N[C@@H](Cc1ccc(O)cc1)C(=O)N[C@H](CCCCN)C(=O)N[C@@H](CC(C)C)C(=O)N[C@@H](CCCNC(=N)N)C(=O)N1CCC[C@H]1C(=O)N[C@H](C)C(N)=O [Compound 2] (Ac-[d2Nal][dPhe(4-Cl)][d3Pal]SY[dK]LRP[dA]-NH2)", "9.00 to 10.00"),
    ("CCNC(=NCCCC[C@@H](NC(=O)[C@H](CCCCN)NC(=O)[C@H](CO)NC(=O)[C@@H](Cc1cccnc1)NC(=O)[C@@H](Cc1ccc(Cl)cc1)NC(=O)[C@@H](Cc1ccc2ccccc2c1)NC(C)=O)C(=O)N[C@@H](CC(C)C)C(=O)N[C@H](CCCCN=C(NCC)NCC)C(=O)N1CCC[C@H]1C(=O)N[C@H](C)C(N)=O)NCC [Compound 4] (Ac-[d2Nal][dPhe(4-Cl)][d3Pal]SK[d(hArg(Et2))]L[d(hArg(Et2))]P[dA]-NH2)", "< 7.00"),
    ("CCNC(=NCCCC[C@H](NC(=O)[C@H](CC(C)C)NC(=O)[C@@H](CCCCN)NC(=O)[C@H](Cc1ccc(O)cc1)NC(=O)[C@H](CO)NC(=O)[C@@H](Cc1cccnc1)NC(=O)[C@@H](Cc1ccc(Cl)cc1)NC(=O)[C@@H](Cc1ccc2ccccc2c1)NC(C)=O)C(=O)N1CCC[C@H]1C(=O)N[C@H](C)C(N)=O)NCC [Compound 12] (Ac-[d2Nal][dPhe(4-Cl)][d3Pal]SY[dK]L[hArg(Et2)]P[dA]-NH2)", "9.00 to 10.00"),
    ("CC(=O)N[C@H](Cc1ccc2ccccc2c1)C(=O)N[C@H](Cc1ccc(Cl)cc1)C(=O)N[C@H](Cc1cccnc1)C(=O)N[C@@H](CO)C(=O)N[C@H](CCCCN)C(=O)N[C@H](CCCNC(N)=O)C(=O)N[C@@H](CC(C)C)C(=O)N[C@@H](CCCNC(=N)N)C(=O)N1CCC[C@H]1C(=O)N[C@H](C)C(N)=O [Compound 1] (Ac-[d2Nal][dPhe(4-Cl)][d3Pal]S[dK][dCit]LRP[dA]-NH2)", "< 7.00"),
    ("CCNC(=NCCCC[C@@H](NC(=O)[C@H](Cc1ccc(O)cc1)NC(=O)[C@H](CO)NC(=O)[C@@H](Cc1cccnc1)NC(=O)[C@@H](Cc1ccc(Cl)cc1)NC(=O)[C@@H](Cc1ccc2ccccc2c1)NC(C)=O)C(=O)N[C@H](CCCCN)C(=O)N[C@H](CCCCN=C(NCC)NCC)C(=O)N1CCC[C@H]1C(=O)N[C@H](C)C(N)=O)NCC [Compound 5] (Ac-[d2Nal][dPhe(4-Cl)][d3Pal]SY[d(hArg(Et2))][dK][d(hArg(Et2))]P[dA]-NH2)", "< 7.00"),
    ("COc1cc2cc(c1Cl)N(C)C(=O)C[C@H](OC(=O)[C@H](C)N(C)C(=O)CCSC(=O)OC[C@H]1[C@@H]3CCc4c(nnn4CCCC[C@@H](NC(=O)[C@H](Cc4ccc(O)cc4)NC(=O)[C@H](CO)NC(=O)[C@@H](Cc4cccnc4)NC(=O)[C@@H](Cc4ccc(Cl)cc4)NC(=O)[C@@H](Cc4ccc5ccccc5c4)NC(C)=O)C(=O)N[C@@H](CC(C)C)C(=O)N[C@@H](CCCNC(=N)N)C(=O)N4CCC[C@H]4C(=O)N[C@H](C)C(N)=O)CC[C@@H]31)[C@]1(C)O[C@H]1C(C)[C@@H]1C[C@@](O)(NC(=O)O1)[C@H](OC)/C=C/C=C(\\C)C2 (some centres unmarked) [Compound 20]", "9.00 to 10.00"),
    ("CC(=O)N[C@H](Cc1ccc2ccccc2c1)C(=O)N[C@H](Cc1ccc(Cl)cc1)C(=O)N[C@H](Cc1cccnc1)C(=O)N[C@@H](CO)C(=O)N[C@@H](Cc1ccc(O)cc1)C(=O)N[C@H](CCCCN)C(=O)N[C@@H](CC(C)C)C(=O)N[C@H](CCCNC(=N)N)C(=O)N1CCC[C@H]1C(=O)N[C@H](C)C(N)=O [Compound 13] (Ac-[d2Nal][dPhe(4-Cl)][d3Pal]SY[dK]L[dR]P[dA]-NH2)", "7.00 to 8.00"),
]
